System: HIV-1 IN mutant R231K
Assay: single-round infectivity assay, R231K IN mutant
Type: cell-based
Details: fold change in EC50, IN mutant versus WT HIV-1
The reader will find reported FC R231K values listed item by item below.
Answer field: number only, no words.

CS(=O)(=O)CCc1cnc2c(c1)c(N)c(C(=O)NCc1ccc(F)cc1F)c(=O)n2O    2.9
Nc1c(C(=O)NCc2ccc(F)cc2F)c(=O)n(O)c2ncc(CCS(=O)(=O)CCN3CCOCC3)cc12    1.5
COC(=O)CNc1c(C(=O)NCc2ccc(F)cc2F)c(=O)n(O)c2ncccc12    2.4
O=C(NCc1ccc(F)cc1F)c1c(O)c2cc(CCS(=O)(=O)c3ccccc3)cnc2n(O)c1=O    2.7

Now for another entry.
Req: So what does the record say about FC R231K for O=C(NCc1ccc(F)cc1F)c1c(O)c2c(CO)ccnc2n(O)c1=O ?
Resp: 0.8

* * *

System: HIV-1 IN double mutant G140S/Q148H
Assay: single-round infectivity assay, G140S/Q148H IN double mutant
Type: cell-based
Details: fold change in EC50, IN mutant versus WT HIV-1
property: FC G140S/Q148H
Answer field: number only, no words.

Guide cases for FC G140S/Q148H, answers given:
O=C(NCc1ccc(F)cc1F)c1c(O)c2c(CO)ccnc2n(O)c1=O    2.0
Nc1c(C(=O)NCc2ccc(F)cc2F)c(=O)n(O)c2ncc(CCS(=O)(=O)CCN3CCOCC3)cc12    1.5
C[C@@H]1CCO[C@H]2Cn3cc(C(=O)NCc4ccc(F)cc4F)c(=O)c(O)c3C(=O)N12 [DTG, dolutegravir, reference compound]    3.6
O=C(NCc1ccc(F)cc1F)c1c(O)c2cc(CCS(=O)(=O)c3ccccc3)cnc2n(O)c1=O    9.2
CS(=O)(=O)CCc1cnc2c(c1)c(N)c(C(=O)NCc1ccc(F)cc1F)c(=O)n2O    4.4
COC(=O)CNc1c(C(=O)NCc2ccc(F)cc2F)c(=O)n(O)c2ncccc12    9.3

Now for another entry.
Req: So what does the record say about FC G140S/Q148H for Nc1c(C(=O)NCc2ccc(F)cc2F)c(=O)n(O)c2ncc(CCCCCCO)cc12 ?
Resp: 4.1

* * *

The reader will find reported ratio of the EC50s (our compound relative to DTG) against P142A values listed item by item below.
Test system: HIV-1 IN mutant P142A
Assay: single-round infectivity assay, P142A IN mutant
Format: cell-based
Conditions: EC50 compound / EC50 DTG

Guide cases for ratio of the EC50s (our compound relative to DTG) against P142A, answers given:
Nc1c(C(=O)NCc2ccc(F)cc2F)c(=O)n(O)c2ncc(CCS(=O)(=O)CCN3CCOCC3)cc12    145.9
CS(=O)(=O)CCc1cnc2c(c1)c(N)c(C(=O)NCc1ccc(F)cc1F)c(=O)n2O    20.3
COC(=O)CNc1c(C(=O)NCc2ccc(F)cc2F)c(=O)n(O)c2ncccc12    5.6
Nc1c(C(=O)NCc2ccc(F)cc2F)c(=O)n(O)c2ncc(CCS(=O)(=O)c3ccccc3)cc12    1.1
O=C(NCc1ccc(F)cc1F)c1c(O)c2cc(CCS(=O)(=O)c3ccccc3)cnc2n(O)c1=O    9.1
Nc1c(C(=O)NCc2ccc(F)cc2F)c(=O)n(O)c2ncc(CCCCCCO)cc12    0.8

Req: Observed ratio of the EC50s (our compound relative to DTG) against P142A on HIV-1 IN mutant P142A for O=C(NCc1ccc(F)cc1F)c1c(O)c2c(CO)ccnc2n(O)c1=O , please.
Resp: 1.9
